compounds and their reported GI50
Tested on: OVCAR-5
Experiment: NCI tumour cell line growth inhibition, 48 h
Calls of active or inactive are those of the source. Rule as the data show it: active = GI50 up to about 1.1 µM and inactive = higher.
experimental endpoint: GI50

>>> reported_result("CC1=C(C(=O)Nc2ccc([N+](=O)[O-])cc2)C(c2ccccc2F)C(C(=O)Nc2ccc([N+](=O)[O-])cc2)=C(C)N1")
"35.1 µM (inactive)"
>>> reported_result("COc1cccc(-c2cc(O)c3c(C)cc(C)nc3n2)c1")
"2.57 µM (inactive)"
>>> reported_result("CCC(=O)NCCc1c[nH]c2ccc(OC)cc12")
"> 100 µM (inactive)"
>>> reported_result("CCNC(=O)OCC1C2=C(C(=O)C(C)=C(N)C2=O)N2CC3C(N3C)C12OC (stereo not given)")
"> 72.6 µM (inactive)"
>>> reported_result("Cc1c(NC(=O)CSC(=S)N(C)C)c(=O)n(-c2ccccc2)n1C")
"> 100 µM (inactive)"

----------
Tested on: NCI-H23
Assay: NCI tumour cell line growth inhibition, 48 h
Active and inactive are the calls of the source. No stated cut-off is given here; in the data, active = GI50 up to about 1.1 µM and inactive = higher.
Catalogue of compounds with associated GI50
experimental endpoint: GI50

>>> reported_result("CC1(C)CCC2(C(=O)O)C(O)CC3(C)C(=CCC4C5(C)CCC(OC6OCC(O)C(O)C6OC6OCC(O)C(O)C6OC6OCC(O)C(OC7OC(CO)C(O)C(O)C7O)C6O)C(C)(C)C5CCC43C)C2C1 (centres undefined)")
"21 µM (inactive)"
>>> reported_result("CC(=O)OCC1OC(n2cc(F)c(=O)[nH]c2=O)C(NC(=O)OCc2ccccc2)C(OC(C)=O)C1OC(C)=O (centres undefined)")
"> 100 µM (inactive)"
>>> reported_result("C#CCN(CC#C)C(=O)C(=O)c1c[nH]c2ccc(OC)cc12")
"22.4 µM (inactive)"
>>> reported_result("O=C1/C(=C/c2ccccc2O)N=C(c2ccccc2)N1c1nc2ccccc2s1")
"11.1 µM (inactive)"
>>> reported_result("COc1ccc(/C=N/NC(=O)NCCCN(C)C)cc1")
"> 100 µM (inactive)"
>>> reported_result("COc1ccc2c(c1)C(=O)C1CCC(=O)N1C2c1ccc2c(c1)OCO2 (centres undefined)")
"15.1 µM (inactive)"
>>> reported_result("CC(C)=CCN1c2ccccc2[C@@]2(CC=C(C)C)CCN(C)[C@@H]12 [(+)-DEBROMOFLUSTRAMINE B]")
"40.5 µM (inactive)"
>>> reported_result("NNC(=S)N/N=C(/C(=O)Nc1ccc([N+](=O)[O-])cc1)c1nc2ccc([N+](=O)[O-])cc2nc1O")
"> 100 µM (inactive)"
>>> reported_result("O=C(NNC(=O)c1c(Cl)c(Cl)c(Cl)c(Cl)c1-c1nc2ccccc2[nH]1)c1ccc(Cl)cc1")
"40.6 µM (inactive)"

----------
Test system: A498
Assay: NCI tumour cell line growth inhibition, 48 h
Calls of active or inactive are those of the source. No stated cut-off is given here; in the data, active = GI50 up to about 1.1 µM and inactive = higher.
Outcomes: active, inactive

>>> group_label("N=C1OC(CN2CCN(c3ccccc3)CC2)CN1C(=S)Nc1ccccc1 (stereo not given)")
"inactive"
>>> group_label("COc1ccc2c(c1)OCC1Cc3ccccc3OC21 (stereo not given)")
"inactive"
>>> group_label("CC1=CCC[C@@H]2[C@@](C)(Cc3cc(O)ccc3O)[C@H](C)CC[C@@]12C")
"inactive"
>>> group_label("O=C(O)CCCCCO")
"inactive"
>>> group_label("Nc1nc(Cl)cc(NCCCCCCCCCCCCNc2cc(Cl)nc(N)n2)n1")
"inactive"
>>> group_label("Cn1c(=O)c2c(nc3n(Cc4ccccc4)c(=O)c(Br)cn23)n(C)c1=O")
"inactive"
>>> group_label("CCCCn1c(N)c(-c2nc3ccccc3o2)sc1=S")
"inactive"
>>> group_label("Nc1nc(SCCC/C=C/I)nc2c1ncn2C1OC(CO)C(O)C1O (stereo not given)")
"inactive"
>>> group_label("COc1cccc2c1C(=O)c1c(O)c3c(c(O)c1C2=O)C[C@@](O)(/C(C)=N/NC(=O)c1ccccc1)C[C@@H]3OC1CC(N)C(O)C(C)O1 (stereo not given in full)")
"active"
>>> group_label("CCNC(=O)OCC1C2=C(C(=O)C(C)=C(N)C2=O)N2CC3C(N3C)C12OC (stereo not given)")
"inactive"

----------
Tested on: TK-10
Assay: NCI tumour cell line growth inhibition, 48 h
Active and inactive are the calls of the source. Rule as the data show it: active = GI50 up to about 1.1 µM and inactive = higher.
GI50 overview
experimental endpoint: GI50

>>> reported_result("Cn1cnc([N+](=O)[O-])c1Sc1nnc(-c2ccc(Cl)cc2)n1C")
"17.7 µM (inactive)"
>>> reported_result("CC(O)CNC1=CC(=O)C(=O)c2ccccc21 (stereo not given)")
"28.7 µM (inactive)"
>>> reported_result("COC1=CC(=O)c2ccccc2C1(C)C1=NC(C)(C)CO1 (stereo not given)")
"> 100 µM (inactive)"
>>> reported_result("c1ccc2sc(C3(N4CCCC4)CCCCCC3)cc2c1")
"17.4 µM (inactive)"
>>> reported_result("CC1=CCC[C@@H]2[C@@](C)(Cc3cc(O)ccc3O)[C@H](C)CC[C@@]12C")
"9.08 µM (inactive)"
>>> reported_result("O=C(Nc1cccc2c1C(=O)c1c(NC(=O)c3ccccc3)ccc(Nc3cccc4c3C(=O)c3ccccc3C4=O)c1C2=O)c1ccccc1")
"> 100 µM (inactive)"
>>> reported_result("COC(=O)/C=C\\[C@@H]1[C@H](C)N1S(=O)(=O)c1ccc(C)cc1 (stereo not given in full)")
"> 100 µM (inactive)"
>>> reported_result("COc1ccc(NC(=O)/C(=N/O)C(C)=O)cc1")
"> 100 µM (inactive)"
>>> reported_result("CCOC(=O)C(NC(=O)Nc1ccc(Cl)cc1)(OC)C(F)(F)F (stereo not given)")
"30.7 µM (inactive)"
>>> reported_result("O=C(c1ccccc1)n1cc(/C=C/[N+](=O)[O-])c2ccccc21")
"> 100 µM (inactive)"

----------
List of GI50 values.
Test system: OVCAR-8
Test: NCI tumour cell line growth inhibition, 48 h
The source made the active and inactive calls. Cut-off read from the data, not from the text of the source: active = GI50 up to about 1.1 µM and inactive = higher.
experimental endpoint: GI50

>>> reported_result("C=CCn1c(=O)c(-c2ccccc2)c(O)c2ccccc21")
"> 100 µM (inactive)"
>>> reported_result("CCCCCCCCNC(=O)SCCCC")
"33.8 µM (inactive)"
>>> reported_result("Cc1ccc(-c2cc(-c3ccc(Cl)cc3)nc(/N=C3\\C(=O)N(CN4CCCCC4)c4ccc(Cl)cc43)n2)cc1")
"18.5 µM (inactive)"
>>> reported_result("CSc1nnc(CCC(=O)Nc2c(C)cccc2C)o1")
"> 100 µM (inactive)"
>>> reported_result("CCCCC(C)C1CCC2(C)C=CC(=O)C(C)=C2C1O (configuration not stated)")
"> 100 µM (inactive)"
>>> reported_result("C[C@]12CCc3nn(-c4ccccc4)nc3C1CC[C@@H]1C2CC[C@]2(C)C(=O)CCC12 (some centres not stated)")
"94.2 µM (inactive)"
>>> reported_result("CC(NC(=O)C(N)CC(=O)O)NC(=O)N(C)C(C)(C)C (configuration not stated)")
"> 100 µM (inactive)"
>>> reported_result("COC(=O)c1c(-c2ccccc2)c2sc3ccccc3n2c1N")
"58.3 µM (inactive)"
>>> reported_result("Cc1n[nH]c(=O)n1N1C(=O)CCCC1=O")
"> 100 µM (inactive)"
>>> reported_result("C1CCCN(NC2=NCCO2)CC1")
"> 100 µM (inactive)"
>>> reported_result("CC1=CCP(C(F)(F)F)P(C(F)(F)F)C1 (configuration not stated)")
"> 100 µM (inactive)"
>>> reported_result("O=C(NO)C(=O)Nc1cc(Cl)ccc1Cl")
"> 100 µM (inactive)"

----------
Test system: UACC-257
Experiment: NCI tumour cell line growth inhibition, 48 h
Activity calls are given as the source filed them. Cut-off read from the data, not from the text of the source: active = GI50 up to about 1.1 µM and inactive = higher.
Recorded GI50 by entry
experimental endpoint: GI50

>>> reported_result("Cc1ccc(-c2c(C#N)c(-c3ccc([N+](=O)[O-])cc3)c(C#N)c(=O)n2NS(=O)(=O)c2ccccc2)cc1")
"88.3 µM (inactive)"
>>> reported_result("CC/C(Cl)=N\\OC(=O)Nc1ccccc1OC(F)(F)F")
"17.2 µM (inactive)"
>>> reported_result("O=C(CC(c1ccccc1)C(C(=O)c1ccncc1)C(CC(=O)c1ccncc1)c1ccccc1)c1ccncc1 (configuration not stated)")
"> 100 µM (inactive)"
>>> reported_result("COc1cc(C2SC(=N)Nc3c2c(C)nn3C(=O)c2ccccc2O)cc(OC)c1OC (configuration not stated)")
"> 10 µM (inactive)"
>>> reported_result("CCCCN1/C(=N/Nc2n[nH]c(=O)c3ccccc23)SCC1c1ccc(Cl)cc1 (configuration not stated)")
"12.2 µM (inactive)"
>>> reported_result("Cc1cc(Br)cc(C)c1NC(=O)C(=O)C(C(=O)c1ccc2ccccc2c1)C1OC(=O)c2ccccc21 (configuration not stated)")
"10.7 µM (inactive)"
>>> reported_result("Cc1cc(S(=O)(=O)N/C(=N/N)NCCc2ccccc2)c(S)cc1Cl")
"44.4 µM (inactive)"
